TARGET_UNDER_TEST: human SGLT1 (Homo sapiens, UniProt P13866)
Construct: expressed in transfected cells; host or cells: CHO-K1
ASSAY_EXPLANATION: SGLT1 assay: Na-dependent 14C-AMG uptake in CHO-K1 cells stably expressing human SGLT1
Format: cell-based
CONDITIONS_USED: 500 μM AMG, 2 hours at 37° C.
pIC50: −log10 of the molar value.
ENDPOINT_NAME: pIC50

Past entries and their recorded results:
{"COMPOUND": "[2H]C([2H])([2H])Oc1cc(C)c(Cc2ccc3c(c2)CC3)cc1[C@@H]1O[C@H](CO)[C@@H](O)[C@H](O)[C@H]1O", "pIC50": 7.82}
{"COMPOUND": "CCOc1cc(Cl)c(Cc2ccc3c(c2)CC3)cc1[C@@H]1O[C@H](CO)[C@@H](O)[C@H](O)[C@H]1O", "pIC50": 7.66}
{"COMPOUND": "OC[C@H]1O[C@@H](c2cc(Cc3ccc4c(c3)CC4)c(Cl)cc2O)[C@H](O)[C@@H](O)[C@@H]1F", "pIC50": 8.40}
{"COMPOUND": "OC[C@H]1O[C@@H](c2cc(Cc3ccc4c(c3)CC4)c(Cl)cc2OC2CC2)[C@H](O)[C@@H](O)[C@@H]1O", "pIC50": 7.30}
{"COMPOUND": "[2H]C1([2H])Cc2ccc(Cc3cc([C@@H]4O[C@H](CO)[C@@H](O)[C@H](O)[C@H]4O)ccc3C)cc21", "pIC50": 7.62}

I: [2H]C1([2H])Cc2ccc(Cc3cc([C@@H]4O[C@H](CO)[C@@H](O)[C@H](O)[C@H]4O)c(OC)cc3C)cc21
II: [2H]C([2H])(c1ccc2c(c1)CC2)c1cc([C@@H]2O[C@H](CO)[C@@H](O)[C@H](O)[C@H]2O)c(O)cc1C (single isomer, unassigned)
III: COc1ccc([C@@H]2O[C@H](CO)[C@@H](O)[C@H](O)[C@H]2O)cc1Cc1ccc2c(c1)CC2
Q: Could you please order the items by pIC50, going from the lowest number to the highest? Submit the labels in the order that the ranking request calls for.
A: I, III, II

a: COc1cc(OC)c([C@@H]2O[C@H](CO)[C@@H](O)[C@H](O)[C@H]2O)cc1Cc1ccc2c(c1)CC2
b: Cc1cc(OCF)c([C@@H]2O[C@H](CO)[C@@H](O)[C@H](O)[C@H]2O)cc1Cc1ccc2c(c1)CC2
Q: Sort a and b by pIC50 descending and give the first. To answer, give the label that identifies your chosen option.
A: b
(b: 7.57, a: 7.24)

a: [2H]C1([2H])Cc2cc(Cc3cc([C@@H]4O[C@H](CO)[C@@H](O)[C@H](O)[C@H]4O)c(OC)cc3C)ccc21
b: Cc1cc(Cc2ccc3c(c2)CC3)cc([C@@H]2O[C@H](CO)[C@@H](O)[C@H](O)[C@H]2O)c1O
Q: Rank a against b by their pIC50 values and give the higher one. Write down the label attached to your selection.
A: b
(b: 7.54, a: 7.17)

---

TARGET_UNDER_TEST: human SGLT2 (Homo sapiens, UniProt P31639)
Sequence (P31639 1-672): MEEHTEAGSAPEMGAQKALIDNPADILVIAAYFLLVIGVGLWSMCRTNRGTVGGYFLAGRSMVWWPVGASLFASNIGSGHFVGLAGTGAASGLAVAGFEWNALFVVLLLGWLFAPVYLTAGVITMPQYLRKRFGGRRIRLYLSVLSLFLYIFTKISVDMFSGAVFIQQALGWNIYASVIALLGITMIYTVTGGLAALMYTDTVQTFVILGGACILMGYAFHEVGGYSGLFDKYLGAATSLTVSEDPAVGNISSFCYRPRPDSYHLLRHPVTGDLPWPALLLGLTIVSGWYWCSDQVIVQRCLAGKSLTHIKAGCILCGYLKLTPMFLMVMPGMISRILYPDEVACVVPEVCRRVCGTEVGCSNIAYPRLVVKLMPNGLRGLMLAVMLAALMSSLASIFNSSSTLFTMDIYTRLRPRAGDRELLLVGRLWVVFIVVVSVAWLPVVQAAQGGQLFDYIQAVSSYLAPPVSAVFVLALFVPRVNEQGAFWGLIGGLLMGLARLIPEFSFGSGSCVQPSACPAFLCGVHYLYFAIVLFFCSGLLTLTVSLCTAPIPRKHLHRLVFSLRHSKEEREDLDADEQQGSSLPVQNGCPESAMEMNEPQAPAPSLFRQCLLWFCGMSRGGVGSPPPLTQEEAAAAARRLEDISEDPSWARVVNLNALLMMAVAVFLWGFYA
ASSAY_EXPLANATION: SGLT2 assay: Na-dependent 14C-AMG uptake in CHO-K1 cells stably expressing human SGLT2
CONDITIONS_USED: 500 μM AMG, 2 hours at 37° C.
pIC50: −log10 of the molar value.
ENDPOINT_NAME: pIC50

{"COMPOUND": "[2H]C([2H])(c1ccc2c(c1)CC2)c1cc([C@@H]2O[C@H](CO)[C@@H](O)[C@H](O)[C@H]2O)ccc1Cl (single isomer, unassigned)", "pIC50": 9.00}
{"COMPOUND": "CN(C)c1cc(O)c([C@@H]2O[C@H](CO)[C@@H](O)[C@H](O)[C@H]2O)cc1Cc1ccc2c(c1)CC2", "pIC50": 8.52}
{"COMPOUND": "OC[C@H]1O[C@@H](c2ccc(Cl)c(Cc3ccc4c(c3)CC4)c2)[C@H](O)[C@@H](O)[C@@H]1F", "pIC50": 8.70}
{"COMPOUND": "CCOc1cc(Cl)c(Cc2ccc3c(c2)CC3)cc1[C@@H]1O[C@H](CO)[C@@H](F)[C@H](O)[C@H]1O", "pIC50": 9.00}
{"COMPOUND": "CCc1cc(O)c([C@@H]2O[C@H](CO)[C@@H](O)[C@H](O)[C@H]2O)cc1Cc1ccc2c(c1)CC2", "pIC50": 8.70}
{"COMPOUND": "[2H]C([2H])(c1ccc2c(c1)CC2)c1cc([C@@H]2O[C@H](CO)[C@@H](O)[C@H](O)[C@H]2O)ccc1OC (single isomer, unassigned)", "pIC50": 8.22}

1: [2H]C([2H])(c1ccc2c(c1)CC2)c1cc([C@@H]2O[C@H](CO)[C@@H](O)[C@H](O)[C@H]2O)c(OC)cc1OC (single isomer, unassigned)
2: COc1cc(F)c([C@@H]2O[C@H](CO)[C@@H](O)[C@H](O)[C@H]2O)cc1Cc1ccc2c(c1)CC2
Q: Hi there, can you help? I need to know whether 1 or 2 has lower measured pIC50. Please indicate the selected item by its label.
A: 2

1: COc1cc(OC)c([C@@H]2O[C@H](CO)[C@@H](F)[C@H](O)[C@H]2O)cc1Cc1ccc2c(c1)CC2
2: [2H]C1([2H])Cc2ccc(Cc3cc([C@@H]4O[C@H](CO)[C@@H](O)[C@H](O)[C@H]4O)ccc3CC)cc21
Q: // which entry reports the smaller pIC50, 1 or 2 ? Write down the label attached to your selection.
A: 2
(2: 8.52, 1: 9.00)

a: OC[C@H]1O[C@@H](c2cc(Cc3ccc4c(c3)CC4)c(Cl)cc2O)[C@H](O)[C@@H](O)[C@@H]1F
b: OC[C@H]1O[C@@H](c2cc(Cc3ccc4c(c3)CC4)c(Cl)cc2OC2CC2)[C@H](O)[C@@H](O)[C@@H]1O
c: CCOc1cc(OC)c(Cc2ccc3c(c2)CC3)cc1[C@@H]1O[C@H](CO)C(F)(F)[C@H](O)[C@H]1O
Q: # sort list by recorded pIC50, greatest to least Put the labels in the order asked and list them.
A: a, b, c
(a: 9.00, b: 8.70, c: 8.30)

---

TARGET_UNDER_TEST: human SGLT1 (Homo sapiens, UniProt P13866)
Construct: expressed in transfected cells; host or cells: CHO-K1
Sequence (P13866 1-664): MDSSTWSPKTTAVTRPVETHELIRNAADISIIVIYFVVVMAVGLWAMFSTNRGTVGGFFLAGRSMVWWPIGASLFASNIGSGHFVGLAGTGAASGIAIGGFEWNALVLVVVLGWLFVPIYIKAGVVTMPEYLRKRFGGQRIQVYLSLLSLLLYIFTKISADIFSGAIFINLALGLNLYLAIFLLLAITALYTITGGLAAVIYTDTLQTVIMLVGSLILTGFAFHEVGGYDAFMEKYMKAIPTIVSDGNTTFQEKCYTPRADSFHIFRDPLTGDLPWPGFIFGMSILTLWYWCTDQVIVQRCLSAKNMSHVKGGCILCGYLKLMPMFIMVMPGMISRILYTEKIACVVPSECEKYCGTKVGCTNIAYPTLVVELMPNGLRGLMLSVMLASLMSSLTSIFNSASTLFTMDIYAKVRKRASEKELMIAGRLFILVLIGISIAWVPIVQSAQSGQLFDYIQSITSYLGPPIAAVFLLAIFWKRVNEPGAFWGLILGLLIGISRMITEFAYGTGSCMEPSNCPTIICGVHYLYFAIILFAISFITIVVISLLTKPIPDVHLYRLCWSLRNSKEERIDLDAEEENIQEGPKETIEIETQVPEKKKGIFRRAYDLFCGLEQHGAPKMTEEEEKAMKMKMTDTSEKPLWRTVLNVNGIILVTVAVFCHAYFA
ASSAY_EXPLANATION: SGLT1 assay: Na-dependent 14C-AMG uptake in CHO-K1 cells stably expressing human SGLT1
Assay type: cell-based
CONDITIONS_USED: at 0.3 μM
ENDPOINT_NAME: inhibition at 0.3 µM (%)

{"MOLECULE": "CCc1cc(OC(F)(F)F)c([C@@H]2O[C@H](CO)[C@@H](O)[C@H](O)[C@H]2O)cc1Cc1ccc2c(c1)CC2 [Compound 35]", "NUMERIC_READOUT": 29}
{"MOLECULE": "OC[C@H]1O[C@@H](c2ccc(F)c(Cc3ccc4c(c3)CC4)c2)[C@H](O)[C@@H](O)[C@@H]1O [Compound 101]", "NUMERIC_READOUT": 22}

P: COc1cc(OC(F)F)c([C@@H]2O[C@H](CO)[C@@H](O)[C@H](O)[C@H]2O)cc1Cc1ccc2c(c1)CC2 [Compound 38]
Q: COc1ccc(Cc2ccc3c(c2)CC3)cc1[C@@H]1O[C@H](CO)[C@@H](O)[C@H](O)[C@H]1O [Compound 26]
Q: Identify the entry with the larger inhibition at 0.3 µM. Options: P and Q Use the label to indicate which entry you chose.
A: P
(P: 20%, Q: 5%)
